# Tested Target: Aldehyde dehydrogenase, mitochondrial (Homo sapiens) (UniProt P05091)
# Test Protocol: qHTS for Inhibitors of the Aldehyde Dehydrogenase Family (ALDH2) Primary screen (AID 2061308); note: nearly all actives have a fitted effect of over 55% in size
# Reported Conditions: ALDH2 enzyme inhibition qHTS, 1536-well; series mostly up to 56 µM
Records with an inconclusive call do not appear. Active and inactive are the calls of the source. Calls come from the whole dose curve; as a rule, active = well fitted inhibition curve with a large enough effect; inconclusive = small, poorly fitted or top-dose-only effect; inactive = flat fitted curve, though single readings scatter. Square brackets hold non-standard residues; d marks the D form. Peptide text beside a SMILES is read from it. ξ: configuration not given here. ξTyr(βOH) = NC(C(=O)O)C(O)c1ccc(O)cc1
Measurement Name: activity change, negative = inhibition

Here's what some known entries look like.
>  <Molecule>
CC(C)C1NC(=O)CNC(=O)C2CCCN2C(=O)C(Cc2c[nH]c3ccccc23)NC(=O)CNC(=O)C(C(O)c2ccc(O)cc2)NC(=O)CNC1=O (stereo unspecified) (cyclo(G[ξTyr(βOH)]GWPGV); configuration not given here)

>  <Experimental Value>
inactive

$$$$
>  <Molecule>
COc1ccc([C@H]2OC[C@H]3[C@@H]2CO[C@@H]3c2ccc(O[C@@H]3O[C@H](CO)C(O)[C@H](O)[C@H]3O)c(OC)c2)cc1OC (stereo partly specified)

>  <Experimental Value>
inactive

$$$$
>  <Molecule>
C=C1C[C@@]23CC[C@@H]4[C@](C)(C(=O)O)CCC[C@@]4(C)C2=CC[C@H]1C3

>  <Experimental Value>
inactive

$$$$
>  <Molecule>
C[C@@H](NC(=O)[C@H](O)c1cc(F)cc(F)c1)C(=O)N[C@@H]1C(=O)N(C)c2ccccc2-c2ccccc21

>  <Experimental Value>
inactive

$$$$
>  <Molecule>
OC[C@H]1O[C@@H](OC(CCCCc2ccc(O)cc2)CCc2ccc(O)cc2)[C@H](O[C@@H]2OC[C@](O)(CO)[C@H]2O)[C@@H](O)[C@@H]1O (stereo partly specified)

>  <Experimental Value>
inactive

$$$$

(Q) Tell me the measured activity change, negative = inhibition of CC(=O)Nc1nc(C)c(-c2ccc(Cl)c(S(=O)(=O)NCCO)c2)s1 , please.
(A) inactive

(Q) What does the record list as activity change, negative = inhibition for COc1cc(O)cc(/C=C/c2ccc(O[C@@H]3O[C@H](CO)[C@@H](O)[C@H](O)[C@H]3O)cc2)c1 ?
(A) inactive

(Q) Which activity change, negative = inhibition reading was recorded for the molecule CC1(C)CCC2(C(=O)OC3OC(CO)C(O)C(O)C3O)CCC3(C)C(=CCC4C5(C)CCC(O)C(C)(C(=O)O)C5CCC43C)C2C1O (stereo unspecified) ?
(A) inactive

(Q) // activity change, negative = inhibition lookup, key: Cc1nc(C(=O)N2CCC[C@H]2Cc2nnc(-c3ccccc3)o2)c(-c2ccccc2F)s1
(A) inactive

(Q) What measured activity change, negative = inhibition goes with COc1cccc(OC2=NS(=O)(=O)c3ccccc32)c1 ?
(A) inactive

(Q) So what's the measured activity change, negative = inhibition for this one? COC1=CC(=O)CC(C)C12Oc1cc(OC)cc(O)c1C2=O (stereo unspecified)
(A) inactive

(Q) If you can, please state the reported activity change, negative = inhibition value of C/C1=C\C[C@]2(C)C(=O)C(O)=C([C@H](C)CO)[C@H]2C/C=C(\C)[C@@H](O)CC/C(C)=C/CC1 .
(A) inactive

(Q) Need activity change, negative = inhibition, item C=CC(C)(CC/C=C(\C)CC/C=C(\C)CC(O)/C=C(\C)C(=O)O)O[C@@H]1O[C@H](CO)[C@@H](O)[C@H](O)[C@H]1O[C@@H]1O[C@H](CO)[C@@H](O)[C@H](O)[C@H]1O (stereo partly specified)
(A) inactive

(Q) Return reported activity change, negative = inhibition; argument: Cc1c(CN2CCN(S(C)(=O)=O)CC2)sc2c(N3CCOCC3)nc(-c3cnc(N)nc3)nc12
(A) inactive

meta.source: PubChem BioAssay (NCATS)
